Target: human PD-L1 / Human PD-1 (Homo sapiens (Human), UniProt Q9NZQ7)
Sequence (Q9NZQ7 19-239): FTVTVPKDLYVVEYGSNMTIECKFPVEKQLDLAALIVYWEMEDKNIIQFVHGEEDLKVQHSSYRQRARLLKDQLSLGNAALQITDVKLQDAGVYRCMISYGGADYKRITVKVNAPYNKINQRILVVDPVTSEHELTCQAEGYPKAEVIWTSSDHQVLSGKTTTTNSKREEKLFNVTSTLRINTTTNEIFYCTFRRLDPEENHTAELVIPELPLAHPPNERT
Assay: Enzyme-Linked Immunosorbent Assay (ELISA), PD-1/PD-L1 binding
Conditions: plates coated with human PD-L1, biotinylated human PD-1 added
Overview of recorded IC50 for various molecules
readout: IC50

>>> readoutvalue("COc1cc(-c2cccc(-c3cccc(OCCCN4[C@H](C)CC[C@H]4C)c3C)c2C)ccc1CN(C)C")
"< 1000 nM"
>>> readoutvalue("Cc1c(-c2ccc3c(c2)CNCC3)cccc1-c1ccc2c(c1)OCCO2")
"1000 to 10000 nM"
>>> readoutvalue("Cc1c(OCCCN2CCC(C)(F)CC2)cccc1-c1cccc(-c2ccc3c(c2)CCNC3)c1C")
"< 1000 nM"
>>> readoutvalue("COc1cc(-c2cccc(-c3cccc(OCCCN4[C@H](C)CC[C@H]4C)c3C)c2C)cc2c1CNCC2")
"< 1000 nM"
